Hello, the source for this data is patent US20150104459A1, in case you need it.

Biological target: recombinant soluble homotrimeric HA of A/California/4/09 (H1N1) (Influenza A virus A/California/04/2009 (H1N1))
Assay: HA microarray, BCC supernatant
Conditions: remark: other sources report otherwise
Observed Property: Trimeric HA Binding RLU (RLU)
Answers are plain numbers, in RLU.

{"columns": ["Binder", "Trimeric HA Binding RLU [RLU]"],
 "data": [
  ["TCN-547 (5092_F11) (antibody, V domains shown) VH: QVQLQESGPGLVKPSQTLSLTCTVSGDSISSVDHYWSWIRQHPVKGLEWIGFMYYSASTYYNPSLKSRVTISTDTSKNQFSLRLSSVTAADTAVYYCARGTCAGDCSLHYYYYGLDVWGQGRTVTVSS VL: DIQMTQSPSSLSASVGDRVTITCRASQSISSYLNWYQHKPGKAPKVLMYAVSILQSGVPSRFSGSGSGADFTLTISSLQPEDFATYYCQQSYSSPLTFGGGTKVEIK", 170]
]}

# input I'd like to know its Trimeric HA Binding RLU. The binder in question is TCN-557 (5081_A04) (antibody, V domains shown) VH: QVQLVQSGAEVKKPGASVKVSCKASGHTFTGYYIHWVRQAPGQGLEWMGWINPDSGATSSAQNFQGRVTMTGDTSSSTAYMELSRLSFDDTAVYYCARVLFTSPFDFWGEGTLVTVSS VL: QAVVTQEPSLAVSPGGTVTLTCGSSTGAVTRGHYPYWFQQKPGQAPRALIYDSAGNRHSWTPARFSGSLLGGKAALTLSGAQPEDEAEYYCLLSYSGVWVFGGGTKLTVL
# output 17600
